Record form. Attribute: residual activity. Fill in for each entry.
biological target: DYRK1B (human) (UniProt Q9Y463); assay: radiometric filter-binding kinase assay, Kinase HotSpot; settings: compound 0.5 µM; ATP 10 µM
Sequence (Q9Y463 whole entry, looked up): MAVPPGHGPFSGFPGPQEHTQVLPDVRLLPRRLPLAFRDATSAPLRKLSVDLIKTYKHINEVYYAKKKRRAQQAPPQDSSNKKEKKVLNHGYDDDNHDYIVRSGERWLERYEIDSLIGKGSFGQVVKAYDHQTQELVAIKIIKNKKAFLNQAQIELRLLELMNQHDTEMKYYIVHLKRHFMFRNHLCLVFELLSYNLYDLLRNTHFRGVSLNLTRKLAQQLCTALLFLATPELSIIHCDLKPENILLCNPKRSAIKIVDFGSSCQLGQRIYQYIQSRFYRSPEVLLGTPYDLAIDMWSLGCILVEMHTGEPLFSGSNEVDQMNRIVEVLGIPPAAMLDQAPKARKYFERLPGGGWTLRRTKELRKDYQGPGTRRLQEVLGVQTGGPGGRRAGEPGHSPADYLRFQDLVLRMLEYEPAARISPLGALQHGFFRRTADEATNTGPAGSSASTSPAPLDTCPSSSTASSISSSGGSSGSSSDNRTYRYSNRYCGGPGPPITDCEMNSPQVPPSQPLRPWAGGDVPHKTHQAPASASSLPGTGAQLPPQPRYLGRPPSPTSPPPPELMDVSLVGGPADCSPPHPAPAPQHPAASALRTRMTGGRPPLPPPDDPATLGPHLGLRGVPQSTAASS
A bare number is not enough; add the unit after it.

Determine from records and report residual activity for Oc1ccc(Nc2nc(-c3ccc(Cl)cc3)cs2)cc1
106%

Determine from records and report residual activity for COc1ccc(OC)c2c(=S)c3ccccc3[nH]c12
107%

Determine from records and report residual activity for O=C1Nc2ccccc2/C1=C1\Nc2ccccc2\C1=N/O
84.7%

Determine from records and report residual activity for COc1ccc(CNC(=O)Nc2ncc([N+](=O)[O-])s2)cc1
99.4%

Determine from records and report residual activity for O=C(CCCc1ccc(-c2ccccc2F)cc1)Nc1ccc(O)cc1
108%

Determine from records and report residual activity for O=C1NC(=O)C(c2cn(CCCO)c3ncccc23)=C1c1cnccn1
93.2%

Determine from records and report residual activity for Cn1sc(=O)n(Cc2ccccc2)c1=O
103%

Determine from records and report residual activity for COc1cc2ncc(-c3ccccc3)nc2cc1OC
110%

Determine from records and report residual activity for CCN(CC)CCCCN1c2ccccc2Oc2ccc(Cl)cc21
101%

Determine from records and report residual activity for Cc1ccc(NC(=O)c2ccc(CN3CCN(C)CC3)cc2)cc1Nc1nccc(-c2cccnc2)n1
97.9%

Determine from records and report residual activity for CN(C)C[C@H]1CCn2c(c(C3=C(c4cn(C)c5ccccc45)C(=O)NC3=O)c3ccccc32)C1
92.2%

Determine from records and report residual activity for Cn1nc2c3c(cccc31)C(=O)c1ccccc1-2
93.1%

Determine from records and report residual activity for O=C1c2ccccc2-[n+]2ccc3c([nH]c4ccccc43)c21
98.7%

Determine from records and report residual activity for COc1cc(OC)c(/C=C2\C(=O)Nc3ccccc32)c(OC)c1
99%

Determine from records and report residual activity for Nc1nccc(-c2c(-c3ccc(F)cc3)ncn2C2CCNCC2)n1
100%

Determine from records and report residual activity for Nc1nnc2[nH]c3ccccc3nc1-2
96%

Determine from records and report residual activity for CC(=O)O/N=C1\C(=C2\C(=O)Nc3cc(Br)ccc32)Nc2ccccc21
96%

Determine from records and report residual activity for Cn1cnc2cc3c(Nc4cccc(Br)c4)ncnc3cc21
98.1%

Determine from records and report residual activity for CC(C)c1nn(-c2c(Cl)cccc2Cl)c2nc(Cc3ccc(OCCO)cc3)nc(O)c12
99.9%

Determine from records and report residual activity for c1cc(-c2cnn3cc(-c4ccc(OCCN5CCCCC5)cc4)cnc23)ccn1
26.2%

====

target: FRK (human) (UniProt P42685); test: radiometric filter-binding kinase assay, Kinase HotSpot; conditions: compound 0.5 µM; ATP 10 µM
Sequence (P42685 whole entry, looked up): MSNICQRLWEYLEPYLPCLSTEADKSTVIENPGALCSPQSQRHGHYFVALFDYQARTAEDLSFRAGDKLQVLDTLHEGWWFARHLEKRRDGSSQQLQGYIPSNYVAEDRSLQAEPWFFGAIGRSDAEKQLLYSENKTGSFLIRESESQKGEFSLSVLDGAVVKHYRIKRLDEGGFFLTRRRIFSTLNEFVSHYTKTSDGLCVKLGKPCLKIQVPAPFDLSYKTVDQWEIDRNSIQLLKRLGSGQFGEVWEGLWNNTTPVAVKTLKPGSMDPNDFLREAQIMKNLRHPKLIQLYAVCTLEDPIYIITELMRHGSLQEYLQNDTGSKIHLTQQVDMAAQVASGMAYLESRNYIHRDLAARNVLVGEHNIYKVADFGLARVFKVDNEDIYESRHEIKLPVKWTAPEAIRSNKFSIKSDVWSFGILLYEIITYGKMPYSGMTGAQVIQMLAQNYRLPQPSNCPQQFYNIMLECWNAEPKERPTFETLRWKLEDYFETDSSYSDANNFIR
Record form. Attribute: residual activity. Fill in for each entry.
Numbers only here, please. The scale is %.

Write down measured residual activity (FRK (human) (UniProt P42685)) for this molecule. O=C1NC(=O)C(c2cn(CCCO)c3ncccc23)=C1c1cnccn1
88.3

Write down measured residual activity (FRK (human) (UniProt P42685)) for this molecule. CC(C)c1nn(-c2c(Cl)cccc2Cl)c2nc(Cc3ccc(OCCO)cc3)nc(O)c12
89.6

Write down measured residual activity (FRK (human) (UniProt P42685)) for this molecule. O=C(Nc1cccc(Nc2cc(Nc3cccc(C(F)(F)F)c3)ncn2)c1)C1CC1
102

Write down measured residual activity (FRK (human) (UniProt P42685)) for this molecule. O=C(CCCc1ccc(-c2ccccc2F)cc1)Nc1ccc(O)cc1
91.9

Write down measured residual activity (FRK (human) (UniProt P42685)) for this molecule. O=C1NC(=O)C(c2c[nH]c3ccccc23)=C1c1c[nH]c2ccccc12
88.2

Write down measured residual activity (FRK (human) (UniProt P42685)) for this molecule. COc1cc2ncc(-c3ccccc3)nc2cc1OC
99.3

Write down measured residual activity (FRK (human) (UniProt P42685)) for this molecule. CC(C)[C@H](CO)Nc1nc(Nc2cc(N)cc(Cl)c2)c2ncn(C(C)C)c2n1
70.3

Write down measured residual activity (FRK (human) (UniProt P42685)) for this molecule. CC(=O)O/N=C1\C(=C2\C(=O)Nc3cc(Br)ccc32)Nc2ccccc21
51.2

Write down measured residual activity (FRK (human) (UniProt P42685)) for this molecule. CCn1cnc2c(Nc3cccc(Cl)c3)nc(N[C@@H]3CCCC[C@@H]3N)nc21
87.7

Write down measured residual activity (FRK (human) (UniProt P42685)) for this molecule. O=C1Cc2c([nH]c3ccc(Br)cc23)-c2ccccc2N1
97.4

Write down measured residual activity (FRK (human) (UniProt P42685)) for this molecule. Cn1nc2c3c(cccc31)C(=O)c1ccccc1-2
94.3

====

Record form. Attribute: residual activity. Fill in for each entry.
molecular target: PRKD1 (human) (UniProt Q15139); assay: radiometric filter-binding kinase assay, Kinase HotSpot; settings: compound 0.5 µM; ATP 10 µM
Sequence (Q15139 whole entry, looked up): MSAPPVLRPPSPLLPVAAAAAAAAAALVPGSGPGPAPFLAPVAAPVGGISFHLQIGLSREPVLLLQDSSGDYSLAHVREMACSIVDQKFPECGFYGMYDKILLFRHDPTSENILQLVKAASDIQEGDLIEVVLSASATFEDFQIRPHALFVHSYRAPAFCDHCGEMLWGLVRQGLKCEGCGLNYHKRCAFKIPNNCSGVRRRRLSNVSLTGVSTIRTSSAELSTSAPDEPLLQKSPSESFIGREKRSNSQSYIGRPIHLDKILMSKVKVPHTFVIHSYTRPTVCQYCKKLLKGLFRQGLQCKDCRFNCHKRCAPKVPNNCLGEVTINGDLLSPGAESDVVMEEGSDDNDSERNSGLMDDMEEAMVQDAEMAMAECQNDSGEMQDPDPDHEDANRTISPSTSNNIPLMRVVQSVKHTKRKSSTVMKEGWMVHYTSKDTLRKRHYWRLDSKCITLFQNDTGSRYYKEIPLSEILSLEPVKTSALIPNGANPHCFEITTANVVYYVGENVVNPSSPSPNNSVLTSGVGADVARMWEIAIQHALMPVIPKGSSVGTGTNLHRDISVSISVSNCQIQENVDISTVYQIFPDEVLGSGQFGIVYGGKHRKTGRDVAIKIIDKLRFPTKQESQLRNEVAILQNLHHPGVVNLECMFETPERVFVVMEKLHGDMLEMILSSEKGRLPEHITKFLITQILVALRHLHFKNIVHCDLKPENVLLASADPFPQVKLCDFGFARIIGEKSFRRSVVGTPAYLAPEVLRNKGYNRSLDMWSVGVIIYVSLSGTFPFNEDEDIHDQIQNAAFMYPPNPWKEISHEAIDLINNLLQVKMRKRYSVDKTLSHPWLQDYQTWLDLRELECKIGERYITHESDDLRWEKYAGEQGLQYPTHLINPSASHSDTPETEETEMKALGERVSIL
Numbers only here, please. The scale is %.

Determine from records and report residual activity for CCn1cnc2c(Nc3cccc(Cl)c3)nc(N[C@@H]3CCCC[C@@H]3N)nc21
90.8

Determine from records and report residual activity for COc1cc2ncnc(N3CCN(C(=O)Nc4ccc(Oc5ccccc5)cc4)CC3)c2cc1OC
102

Determine from records and report residual activity for CC(C)c1nn(-c2c(Cl)cccc2Cl)c2nc(Cc3ccc(OCCO)cc3)nc(O)c12
103

Determine from records and report residual activity for CCN(CC)CCCCN1c2ccccc2Oc2ccc(Cl)cc21
101

Determine from records and report residual activity for O=C1Nc2ccccc2/C1=C1/Nc2ccccc2/C1=N\OCCC(O)CO (stereo not given)
72.7

Determine from records and report residual activity for O=C1Cc2c([nH]c3ccc(Br)cc23)-c2ccccc2N1
101

Determine from records and report residual activity for CC(=O)O/N=C1\C(=C2\C(=O)Nc3cc(Br)ccc32)Nc2ccccc21
82.1

Determine from records and report residual activity for COc1ccc(CNC(=O)Nc2ncc([N+](=O)[O-])s2)cc1
104

Determine from records and report residual activity for O=C1NC(=O)C(c2c[nH]c3ccccc23)=C1c1c[nH]c2ccccc12
97.6

Determine from records and report residual activity for Oc1ccc(Nc2nc(-c3ccc(Cl)cc3)cs2)cc1
96.8

====

target: UniProt:Q99986; assay: radiometric filter-binding kinase assay, Kinase HotSpot; settings: compound 0.5 µM; ATP 10 µM
Sequence (Q99986 whole entry, looked up): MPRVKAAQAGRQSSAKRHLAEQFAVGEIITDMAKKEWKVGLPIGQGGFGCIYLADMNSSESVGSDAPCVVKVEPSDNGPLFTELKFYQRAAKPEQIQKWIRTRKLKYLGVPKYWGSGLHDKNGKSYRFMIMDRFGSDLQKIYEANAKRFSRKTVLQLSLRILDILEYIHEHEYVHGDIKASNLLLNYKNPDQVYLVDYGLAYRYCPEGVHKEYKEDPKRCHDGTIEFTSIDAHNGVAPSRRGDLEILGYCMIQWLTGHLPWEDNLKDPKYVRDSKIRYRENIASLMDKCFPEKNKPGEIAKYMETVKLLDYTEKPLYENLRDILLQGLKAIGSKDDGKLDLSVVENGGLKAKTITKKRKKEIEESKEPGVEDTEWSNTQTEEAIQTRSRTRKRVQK
Measured Endpoint: residual activity (%)
Numbers only here, please. The scale is %.

Determine from records and report residual activity for CN([C@@H](Cc1ccc(OS(=O)(=O)c2cccc3cnccc23)cc1)C(=O)N1CCN(c2ccccc2)CC1)S(=O)(=O)c1cccc2cnccc12
92.1

Determine from records and report residual activity for Nc1nccc(-c2c(-c3ccc(F)cc3)ncn2C2CCNCC2)n1
83.4

Determine from records and report residual activity for CCn1cnc2c(Nc3cccc(Cl)c3)nc(N[C@@H]3CCCC[C@@H]3N)nc21
103

Determine from records and report residual activity for Nc1nnc2[nH]c3ccccc3nc1-2
103

Determine from records and report residual activity for CCN(CC)CCCCN1c2ccccc2Oc2ccc(Cl)cc21
101

Determine from records and report residual activity for O=C1Nc2ccccc2/C1=C1/Nc2ccccc2/C1=N\OCCC(O)CO (stereo unspecified)
88.3

====

Record form. Attribute: residual activity. Fill in for each entry.
biological target: RIPK2 (human); assay: radiometric filter-binding kinase assay, Kinase HotSpot; settings: compound 0.5 µM; ATP 10 µM
Numbers only here, please. The scale is %.

Write down measured residual activity (RIPK2 (human)) for this molecule. O=C(Nc1cccc(Nc2cc(Nc3cccc(C(F)(F)F)c3)ncn2)c1)C1CC1
80.8

Write down measured residual activity (RIPK2 (human)) for this molecule. COc1cc2ncc(-c3ccccc3)nc2cc1OC
90.3

Write down measured residual activity (RIPK2 (human)) for this molecule. Cn1sc(=O)n(Cc2ccccc2)c1=O
85.4

Write down measured residual activity (RIPK2 (human)) for this molecule. CCn1cnc2c(Nc3cccc(Cl)c3)nc(N[C@@H]3CCCC[C@@H]3N)nc21
70

Write down measured residual activity (RIPK2 (human)) for this molecule. CN(C)C[C@H]1CCn2c(c(C3=C(c4cn(C)c5ccccc45)C(=O)NC3=O)c3ccccc32)C1
94.4

Write down measured residual activity (RIPK2 (human)) for this molecule. CC(C)[C@H](CO)Nc1nc(Nc2cc(N)cc(Cl)c2)c2ncn(C(C)C)c2n1
87.7

Write down measured residual activity (RIPK2 (human)) for this molecule. Nc1nnc2[nH]c3ccccc3nc1-2
81.1

Write down measured residual activity (RIPK2 (human)) for this molecule. O=C(CCCc1ccc(-c2ccccc2F)cc1)Nc1ccc(O)cc1
84.5

Write down measured residual activity (RIPK2 (human)) for this molecule. CC(=O)O/N=C1\C(=C2\C(=O)Nc3cc(Br)ccc32)Nc2ccccc21
108

Write down measured residual activity (RIPK2 (human)) for this molecule. Oc1ccc(Nc2nc(-c3ccc(Cl)cc3)cs2)cc1
96.4

Write down measured residual activity (RIPK2 (human)) for this molecule. CC(C)c1nn(-c2c(Cl)cccc2Cl)c2nc(Cc3ccc(OCCO)cc3)nc(O)c12
89.3

Write down measured residual activity (RIPK2 (human)) for this molecule. Cn1nc2c3c(cccc31)C(=O)c1ccccc1-2
75.7

Write down measured residual activity (RIPK2 (human)) for this molecule. Nc1nccc(-c2c(-c3ccc(F)cc3)ncn2C2CCNCC2)n1
77.2

Write down measured residual activity (RIPK2 (human)) for this molecule. Cn1cnc2cc3c(Nc4cccc(Br)c4)ncnc3cc21
35.6

Write down measured residual activity (RIPK2 (human)) for this molecule. O=C1Nc2ccccc2/C1=C1\Nc2ccccc2\C1=N/O
72.3

Write down measured residual activity (RIPK2 (human)) for this molecule. O=C1NC(=O)/C(=C\c2ccc3nccnc3c2)S1
76.8

Write down measured residual activity (RIPK2 (human)) for this molecule. O=C(O)/C=C/c1cc(Br)c(Br)c(Br)c1Br
88.4

Write down measured residual activity (RIPK2 (human)) for this molecule. COc1cc2ncnc(N3CCN(C(=O)Nc4ccc(Oc5ccccc5)cc4)CC3)c2cc1OC
93.7

Write down measured residual activity (RIPK2 (human)) for this molecule. Cc1nc2cc3nc(-c4cccs4)cnc3cc2n1C
89.1

Write down measured residual activity (RIPK2 (human)) for this molecule. CN([C@@H](Cc1ccc(OS(=O)(=O)c2cccc3cnccc23)cc1)C(=O)N1CCN(c2ccccc2)CC1)S(=O)(=O)c1cccc2cnccc12
89.4

Write down measured residual activity (RIPK2 (human)) for this molecule. COc1ccc(OC)c2c(=S)c3ccccc3[nH]c12
108

Write down measured residual activity (RIPK2 (human)) for this molecule. O=C1Nc2ccccc2/C1=C1/Nc2ccccc2/C1=N\OCCC(O)CO (configuration not stated)
62.8

Write down measured residual activity (RIPK2 (human)) for this molecule. O=C1Cc2c([nH]c3ccc(Br)cc23)-c2ccccc2N1
75.9

Write down measured residual activity (RIPK2 (human)) for this molecule. COc1ccc(CNC(=O)Nc2ncc([N+](=O)[O-])s2)cc1
82.8

Write down measured residual activity (RIPK2 (human)) for this molecule. O=C1NC(=O)C(c2c[nH]c3ccccc23)=C1c1c[nH]c2ccccc12
97

Write down measured residual activity (RIPK2 (human)) for this molecule. CCN(CC)CCCCN1c2ccccc2Oc2ccc(Cl)cc21
89.7

Write down measured residual activity (RIPK2 (human)) for this molecule. O=C1NC(=O)C(c2cn(CCCO)c3ncccc23)=C1c1cnccn1
90.9
